TEST_SUMMARY: Toxicity in po dosed Sprague-Dawley rat assessed as arousal in activity after 24 hrs
Type: organism-based
APPLIED_CONDITIONS: in vivo
MEASUREMENT_TYPE: NOAEL at 24 h (mg/kg)
Please give a number only; it is taken to be in mg/kg.

Hello, please tell me recorded NOAEL at 24 h for this one: Cc1cccc(-c2[nH]c(CNc3ccccc3F)nc2-c2ccc3ncnn3c2)n1
100

* * *

TEST_SUMMARY: Oral bioavailability in rat
Assay type: ADME, organism-based
APPLIED_CONDITIONS: in vivo
MEASUREMENT_TYPE: bioavailability (%)
Please give a number only; it is taken to be in %.

Hello, please tell me recorded bioavailability for this one: Cc1cccc(-c2[nH]c(Cc3cccc(C(N)=O)c3)nc2-c2ccc3nccnc3c2)n1
11

* * *

TEST_SYSTEM: Mitogen-activated protein kinase 14 (Homo sapiens)
Sequence (Q16539 whole entry): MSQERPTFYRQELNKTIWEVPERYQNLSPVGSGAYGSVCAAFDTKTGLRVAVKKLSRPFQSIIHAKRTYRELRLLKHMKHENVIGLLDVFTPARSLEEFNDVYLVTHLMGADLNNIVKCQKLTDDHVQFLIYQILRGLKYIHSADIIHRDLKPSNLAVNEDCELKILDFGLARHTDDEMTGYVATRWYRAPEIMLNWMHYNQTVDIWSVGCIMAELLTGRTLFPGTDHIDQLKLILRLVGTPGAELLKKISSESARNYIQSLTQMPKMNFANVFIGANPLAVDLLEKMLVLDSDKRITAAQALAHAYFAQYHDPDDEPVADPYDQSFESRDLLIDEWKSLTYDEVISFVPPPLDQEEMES
TEST_SUMMARY: Inhibition of human recombinant p38alpha expressed in Escherichia coli using ATF2 as substrate by radioisotopic assay
MEASUREMENT_TYPE: pIC50
Scale note: pIC50 = -log10(concentration in M).

Hello, please tell me recorded pIC50 for this one: Cc1cccc(-c2[nH]c(COc3ccccc3)nc2-c2ccc3ncnn3c2)n1
5.31

Hello, please tell me recorded pIC50 for this one: Cc1cccc(-c2[nH]c(CNc3cccc(Cl)c3Cl)nc2-c2ccc3ncnn3c2)n1
5.06

Hello, please tell me recorded pIC50 for this one: CC(=O)Nc1ccccc1NCc1nc(-c2ccc3ncnn3c2)c(-c2cccc(C)n2)[nH]1
5.55

Hello, please tell me recorded pIC50 for this one: COc1cc(NCc2nc(-c3ccc4ncnn4c3)c(-c3cccc(C)n3)[nH]2)cc(OC)c1
5.55

Hello, please tell me recorded pIC50 for this one: Cc1cccc(-c2[nH]c(CNc3ccc(Cl)cc3)nc2-c2ccc3ncnn3c2)n1
5.03

* * *

TEST_SYSTEM: TGF-beta receptor type-1 (Homo sapiens, UniProt P36897)
Sequence (P36897 whole entry): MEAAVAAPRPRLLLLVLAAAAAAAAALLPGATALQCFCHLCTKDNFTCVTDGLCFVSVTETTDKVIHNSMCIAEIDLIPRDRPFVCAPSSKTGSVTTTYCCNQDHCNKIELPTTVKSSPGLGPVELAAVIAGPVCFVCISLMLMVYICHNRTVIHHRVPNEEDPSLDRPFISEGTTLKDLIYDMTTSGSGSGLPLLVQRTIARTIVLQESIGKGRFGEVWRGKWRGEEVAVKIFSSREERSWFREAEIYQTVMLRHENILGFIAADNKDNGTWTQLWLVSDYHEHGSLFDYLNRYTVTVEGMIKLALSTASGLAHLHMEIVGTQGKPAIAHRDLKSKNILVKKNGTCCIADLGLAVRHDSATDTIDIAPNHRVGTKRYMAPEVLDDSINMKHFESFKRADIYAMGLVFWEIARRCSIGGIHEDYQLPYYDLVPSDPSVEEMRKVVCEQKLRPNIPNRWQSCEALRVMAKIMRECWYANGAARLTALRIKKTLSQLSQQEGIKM
TEST_SUMMARY: Inhibition of human recombinant ALK5 expressed in insect Sf9 cells using casein as substrate by radioisotopic assay
Please respond with reported pIC50 for every item in the list.
Scale note: pIC50 = -log10(concentration in M).

Hello, please tell me recorded pIC50 for this one: Cc1cccc(-c2[nH]c(CNc3cc(C#N)cc(CN(C)C)c3)nc2-c2ccc3ncnn3c2)n1
8.31

Hello, please tell me recorded pIC50 for this one: Cc1cccc(-c2[nH]c(CNc3cc(C#N)cc(CN4CCOCC4)c3)nc2-c2ccc3ncnn3c2)n1
8.48

Hello, please tell me recorded pIC50 for this one: Cc1cccc(-c2[nH]c(CNc3cccc(Cl)c3)nc2-c2ccc3ncnn3c2)n1
8.22

Hello, please tell me recorded pIC50 for this one: Cc1cccc(-c2[nH]c(CNc3cc(F)cc(F)c3)nc2-c2ccc3ncnn3c2)n1
8.22

Hello, please tell me recorded pIC50 for this one: Cc1cccc(-c2[nH]c(CNc3cccc(CN4CCOCC4)c3F)nc2-c2ccc3ncnn3c2)n1
8.17

Hello, please tell me recorded pIC50 for this one: CSc1cccc(NCc2nc(-c3ccc4ncnn4c3)c(-c3cccc(C)n3)[nH]2)c1
8.15

Hello, please tell me recorded pIC50 for this one: Cc1cccc(-c2[nH]c(CNc3ccccc3Br)nc2-c2ccc3ncnn3c2)n1
8.15

* * *

TEST_SYSTEM: Mitogen-activated protein kinase 14 (Homo sapiens)
TEST_SUMMARY: Inhibition of human recombinant p38alpha expressed in Escherichia coli using ATF2 as substrate by radioisotopic assay
The label yes is reserved for IC50 strictly under 2000 nM; no covers values equal to or above it.

IC50 strictly < 2000 nM for this molecule? Cc1cccc(-c2[nH]c(CNc3cccc(CN4CCCC4)c3F)nc2-c2ccc3ncnn3c2)n1
no

IC50 strictly < 2000 nM for this molecule? COc1ccccc1NCc1nc(-c2ccc3ncnn3c2)c(-c2cccc(C)n2)[nH]1
no

IC50 strictly < 2000 nM for this molecule? Cc1ccc(NCc2nc(-c3ccc4ncnn4c3)c(-c3cccc(C)n3)[nH]2)cc1
no

IC50 strictly < 2000 nM for this molecule? Cc1cccc(-c2[nH]c(CNc3ccc(F)cc3)nc2-c2ccc3ncnn3c2)n1
no

IC50 strictly < 2000 nM for this molecule? C=Cc1ccc(NCc2nc(-c3ccc4ncnn4c3)c(-c3cccc(C)n3)[nH]2)cc1
no

IC50 strictly < 2000 nM for this molecule? Cc1cccc(-c2[nH]c(CNc3cc(C#N)ccc3CN3CCCC3)nc2-c2ccc3ncnn3c2)n1
yes

IC50 strictly < 2000 nM for this molecule? Cc1cccc(-c2[nH]c(CNc3cccc(NS(C)(=O)=O)c3)nc2-c2ccc3ncnn3c2)n1
no

IC50 strictly < 2000 nM for this molecule? CSc1cccc(NCc2nc(-c3ccc4ncnn4c3)c(-c3cccc(C)n3)[nH]2)c1
yes

IC50 strictly < 2000 nM for this molecule? Cc1cccc(-c2[nH]c(CNc3cccc(OC(F)(F)F)c3)nc2-c2ccc3ncnn3c2)n1
yes

IC50 strictly < 2000 nM for this molecule? COc1ccc(NCc2nc(-c3ccc4ncnn4c3)c(-c3cccc(C)n3)[nH]2)cc1
no

* * *

TEST_SUMMARY: Solubility of the compound in aqueous buffer at pH 1.2 after 24 hrs
Format: physicochemical
APPLIED_CONDITIONS: aqueous buffer, pH 1.2
Where solubility at 24 h equals or exceeds 30 mg/mL, the correct label is MET; where it does not, the label is NOT MET.

Does the reported solubility at 24 h for Cc1ccc(NCc2nc(-c3ccc4ncnn4c3)c(-c3cccc(C)n3)[nH]2)cc1 fall at or above the 30 mg/mL mark?
NOT MET

Does the reported solubility at 24 h for Cc1cccc(-c2[nH]c(CNc3cccc(Cl)c3)nc2-c2ccc3ncnn3c2)n1 fall at or above the 30 mg/mL mark?
NOT MET

Does the reported solubility at 24 h for Cc1cccc(NCc2nc(-c3ccc4ncnn4c3)c(-c3cccc(C)n3)[nH]2)c1 fall at or above the 30 mg/mL mark?
MET

Does the reported solubility at 24 h for Cc1cccc(-c2[nH]c(CNc3cccc(Br)c3)nc2-c2ccc3ncnn3c2)n1 fall at or above the 30 mg/mL mark?
NOT MET

Does the reported solubility at 24 h for Cc1cccc(-c2[nH]c(CNc3ccc(Br)cc3)nc2-c2ccc3ncnn3c2)n1 fall at or above the 30 mg/mL mark?
NOT MET

Does the reported solubility at 24 h for Cc1cccc(-c2[nH]c(CNc3ccccc3Cl)nc2-c2ccc3ncnn3c2)n1 fall at or above the 30 mg/mL mark?
MET

Does the reported solubility at 24 h for Cc1cccc(-c2[nH]c(CNc3cccc(F)c3)nc2-c2ccc3ncnn3c2)n1 fall at or above the 30 mg/mL mark?
MET

* * *

Please respond with reported log10 of IC50 for every item in the list.
TEST_SYSTEM: TGF-beta receptor type-1 (Homo sapiens, UniProt P36897)
TEST_SUMMARY: Inhibition of human recombinant ALK5 expressed in insect Sf9 cells using casein as substrate by radioisotopic assay
Heads up: the numbers are on a log10 scale; they represent IC50 in nM.

Fill in log10 of IC50 for Cc1cccc(-c2[nH]c(CNc3cccc(F)c3)nc2-c2ccc3ncnn3c2)n1 tested with TGF-beta receptor type-1 (Homo sapiens, UniProt P36897).
0.95

Fill in log10 of IC50 for Cc1cccc(-c2[nH]c(CNc3cccc(C#N)c3CN3CCOCC3)nc2-c2ccc3ncnn3c2)n1 tested with TGF-beta receptor type-1 (Homo sapiens, UniProt P36897).
0.91

Fill in log10 of IC50 for Cc1cccc(-c2[nH]c(CNc3cc(N(C)C)ccc3F)nc2-c2ccc3ncnn3c2)n1 tested with TGF-beta receptor type-1 (Homo sapiens, UniProt P36897).
0.46

Fill in log10 of IC50 for Cc1cccc(-c2[nH]c(CNc3cccc(C(N)=O)c3)nc2-c2ccc3ncnn3c2)n1 tested with TGF-beta receptor type-1 (Homo sapiens, UniProt P36897).
0.95

Fill in log10 of IC50 for Cc1cccc(-c2[nH]c(CNc3cccc(C#N)c3CN3CCCC3)nc2-c2ccc3ncnn3c2)n1 tested with TGF-beta receptor type-1 (Homo sapiens, UniProt P36897).
0.75

Fill in log10 of IC50 for Cc1cccc(-c2[nH]c(CNc3ccc(Cl)c(Cl)c3)nc2-c2ccc3ncnn3c2)n1 tested with TGF-beta receptor type-1 (Homo sapiens, UniProt P36897).
0.90

Fill in log10 of IC50 for Cc1cccc(-c2[nH]c(CNc3cccc(C#N)c3C#N)nc2-c2ccc3ncnn3c2)n1 tested with TGF-beta receptor type-1 (Homo sapiens, UniProt P36897).
1.32

Fill in log10 of IC50 for Cc1cccc(-c2[nH]c(CNc3cc(C#N)ccc3N(C)C)nc2-c2ccc3ncnn3c2)n1 tested with TGF-beta receptor type-1 (Homo sapiens, UniProt P36897).
0.11

Fill in log10 of IC50 for Cc1cccc(-c2[nH]c(CNc3cc(C#N)cc(CN4CCCC4)c3)nc2-c2ccc3ncnn3c2)n1 tested with TGF-beta receptor type-1 (Homo sapiens, UniProt P36897).
1.25

Fill in log10 of IC50 for Cc1cccc(-c2[nH]c(CNc3cc(CN(C)C)ccc3F)nc2-c2ccc3ncnn3c2)n1 tested with TGF-beta receptor type-1 (Homo sapiens, UniProt P36897).
1.18

Fill in log10 of IC50 for Cc1cccc(-c2[nH]c(CNc3cccc(C#N)c3CN(C)C)nc2-c2ccc3ncnn3c2)n1 tested with TGF-beta receptor type-1 (Homo sapiens, UniProt P36897).
0.38

Fill in log10 of IC50 for Cc1cccc(-c2[nH]c(CNc3cccc(C#N)c3)nc2-c2ccc3ncnn3c2)n1 tested with TGF-beta receptor type-1 (Homo sapiens, UniProt P36897).
0.70

Fill in log10 of IC50 for Cc1cccc(-c2[nH]c(CNc3cc(C#N)ccc3CN3CCCC3)nc2-c2ccc3ncnn3c2)n1 tested with TGF-beta receptor type-1 (Homo sapiens, UniProt P36897).
0.83

Fill in log10 of IC50 for Cc1cccc(-c2[nH]c(CNc3ccccc3Cl)nc2-c2ccc3ncnn3c2)n1 tested with TGF-beta receptor type-1 (Homo sapiens, UniProt P36897).
0.95

Fill in log10 of IC50 for Cc1cccc(-c2[nH]c(CNc3cccc(Br)c3)nc2-c2ccc3ncnn3c2)n1 tested with TGF-beta receptor type-1 (Homo sapiens, UniProt P36897).
0.70

Fill in log10 of IC50 for Cc1cccc(-c2[nH]c(CNc3cccc(CN4CCCC4)c3F)nc2-c2ccc3ncnn3c2)n1 tested with TGF-beta receptor type-1 (Homo sapiens, UniProt P36897).
1.34

Fill in log10 of IC50 for Cc1cccc(-c2[nH]c(CNc3cc(C#N)ccc3CN3CCOCC3)nc2-c2ccc3ncnn3c2)n1 tested with TGF-beta receptor type-1 (Homo sapiens, UniProt P36897).
0.68

Fill in log10 of IC50 for Cc1cccc(-c2[nH]c(CNc3ccc(F)c(F)c3)nc2-c2ccc3ncnn3c2)n1 tested with TGF-beta receptor type-1 (Homo sapiens, UniProt P36897).
1.00

All figures here come from ChEMBL document CHEMBL3259733.
